Origin of values: patent US6916805B2

Molecular target: human prothrombinase (PTase) complex (Homo sapiens)
Construct: 2.5 pM human factor Xa (Enzyme Research Laboratories)
Sequence (P00742 235-488 limits assumed): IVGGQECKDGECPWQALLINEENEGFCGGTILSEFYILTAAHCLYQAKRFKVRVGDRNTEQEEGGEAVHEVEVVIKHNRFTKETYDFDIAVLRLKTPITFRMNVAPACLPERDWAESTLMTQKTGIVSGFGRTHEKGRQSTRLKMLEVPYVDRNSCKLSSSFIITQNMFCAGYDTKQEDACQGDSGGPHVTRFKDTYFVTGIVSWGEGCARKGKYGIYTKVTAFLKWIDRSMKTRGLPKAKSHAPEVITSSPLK
Sequence (P00742 41-179 limits assumed): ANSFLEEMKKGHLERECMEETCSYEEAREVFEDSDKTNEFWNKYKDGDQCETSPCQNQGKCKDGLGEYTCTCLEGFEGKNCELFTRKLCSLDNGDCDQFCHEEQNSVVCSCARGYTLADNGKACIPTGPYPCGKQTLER
Sequence (P12259 29-737 partner limits assumed): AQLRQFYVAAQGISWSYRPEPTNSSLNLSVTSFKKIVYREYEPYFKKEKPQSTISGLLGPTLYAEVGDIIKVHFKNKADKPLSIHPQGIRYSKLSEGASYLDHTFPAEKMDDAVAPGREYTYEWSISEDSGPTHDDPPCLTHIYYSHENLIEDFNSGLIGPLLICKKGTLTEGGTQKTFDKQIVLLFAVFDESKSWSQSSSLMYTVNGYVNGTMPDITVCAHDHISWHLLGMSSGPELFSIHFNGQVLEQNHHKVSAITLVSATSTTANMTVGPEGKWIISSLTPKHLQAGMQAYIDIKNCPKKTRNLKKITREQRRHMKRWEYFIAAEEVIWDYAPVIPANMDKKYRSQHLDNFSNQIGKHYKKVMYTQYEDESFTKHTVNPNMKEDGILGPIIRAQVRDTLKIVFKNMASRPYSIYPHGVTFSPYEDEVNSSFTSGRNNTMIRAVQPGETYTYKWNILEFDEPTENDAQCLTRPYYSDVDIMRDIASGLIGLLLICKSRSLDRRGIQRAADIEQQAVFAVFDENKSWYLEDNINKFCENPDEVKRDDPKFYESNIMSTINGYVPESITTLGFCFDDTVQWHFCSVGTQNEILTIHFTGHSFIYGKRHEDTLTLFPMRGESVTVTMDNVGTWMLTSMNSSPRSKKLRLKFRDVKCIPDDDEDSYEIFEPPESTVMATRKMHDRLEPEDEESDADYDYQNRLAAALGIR
Sequence (P12259 1574-2224 partner limits assumed): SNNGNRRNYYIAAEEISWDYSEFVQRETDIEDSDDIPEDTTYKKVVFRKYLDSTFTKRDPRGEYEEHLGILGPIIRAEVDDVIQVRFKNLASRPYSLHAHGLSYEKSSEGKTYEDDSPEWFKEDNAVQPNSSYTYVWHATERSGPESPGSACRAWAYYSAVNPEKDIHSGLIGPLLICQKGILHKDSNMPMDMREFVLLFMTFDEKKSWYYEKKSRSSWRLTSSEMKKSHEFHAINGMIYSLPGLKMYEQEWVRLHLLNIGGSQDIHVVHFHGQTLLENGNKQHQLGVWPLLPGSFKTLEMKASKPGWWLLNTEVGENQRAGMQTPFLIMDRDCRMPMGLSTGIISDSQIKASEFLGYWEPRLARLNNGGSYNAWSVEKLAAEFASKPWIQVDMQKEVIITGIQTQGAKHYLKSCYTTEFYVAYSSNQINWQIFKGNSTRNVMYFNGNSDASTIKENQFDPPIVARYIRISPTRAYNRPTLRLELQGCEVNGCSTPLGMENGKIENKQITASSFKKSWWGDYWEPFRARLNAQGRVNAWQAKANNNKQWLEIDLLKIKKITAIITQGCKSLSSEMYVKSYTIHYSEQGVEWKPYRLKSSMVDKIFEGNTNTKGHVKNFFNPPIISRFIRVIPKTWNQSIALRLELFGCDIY
Assay: In vitro assay for human prothrombinase
Details: PTase activity expressed by thrombin activity
Source text: For determination of IC50 (PTase) of the compounds of the invention, PTase activity was expressed by thrombin activity. […]
measurement_label: pIC50
To interpret pIC50, take it as minus log10 of a concentration measured in moles per litre.

Exercise: # lookup: pIC50 of C[C@@H]1CCC[C@H](C)N1CCCCCn1c(=O)c(-c2cc(C(=N)N)ccc2O)nc2ccccc21
Key: 8.82
